# System: Bacillus subtilis
# measurement.protocol: Antibacterial against Bacillus subtilis ATCC 6633 at 20 mg/mL after 24 hrs by NCCLS M7-A6 method
# Type: functional, organism-based
Active and inactive are the calls of the source. No cut-off for these calls is given here.

| compound | Activity |
| --- | --- |
| Cc1cc(=O)oc2cc(O)ccc12 [HYMECROMONE] | inactive |
| CC(=O)c1c(OCCN2CCOCC2)ccc2c(C)cc(=O)oc12 | inactive |
| CC(=O)c1c(OCCN(C(C)C)C(C)C)ccc2c(C)cc(=O)oc12 | inactive |
| O=c1ccc2ccc(O)cc2o1 | inactive |
| CCN(CC)CCOc1ccc2c(C)cc(=O)oc2c1C(C)=O | inactive |
| Cc1cc(=O)oc2cc(OCCN(C)Cc3ccccc3)ccc12 | inactive |
